# Test system: S. aureus ATCC 13709
# experiment_description: MIC, antibacterial potency, S. aureus
# Assay type: cell-based
# condition_details: S. aureus (SA); in µg/mL
measure: MIC, SA

CCc1[nH]c2nc(Sc3cncnc3)nc(N3CC4C(C3)C4(N)C(N)=O)c2c1Cl (stereo not drawn)
<=0.5
CCc1[nH]c2nc(Oc3ccc4c(c3)ncc[n+]4[O-])nc(Oc3ccc4nccnc4c3)c2c1Br
<=0.5
CCc1[nH]c2nc(Oc3cnc4c(c3)ncn4C)nc(Oc3ccc4nccnc4c3)c2c1Br
<=0.5
CCc1[nH]c2nc(Oc3cccc(C#N)c3)nc(C(C)N3CC4C(N)C4C3)c2c1Cl (stereo not drawn)
>16
CCc1[nH]c2nc(Sc3cncc(O)c3)nc(N3CC[C@@H](N)C3)c2c1Cl
>64
CCc1[nH]c2nc(Sc3ccc4ccc[n+]([O-])c4c3)nc(N3CC4C(N)C4C3)c2c1Cl (stereo not drawn)
<=0.5
CCc1[nH]c2nc(Sc3ccc4ccc(C(=O)O)nc4c3)nc(N3CC(CNC(=O)c4cn(C)nc4C(F)(F)F)C3)c2c1Cl
<=0.5
CCc1[nH]c2nc(Oc3ccc4nccnc4c3)nc(Oc3ccc4c(N)nc(N)nc4c3)c2c1Br
<=0.5
CCc1[nH]c2nc(Oc3cnc(C)nc3)nc(Oc3cnc(C)nc3)c2c1Br
<=0.5

Cited source for all entries: patent US10047105B2
